- System: 653999-131-R-J2-PDC complex spheroid viability
- assayProtocol: Anticancer human tumor 653999-131-R-J2-PDC patient-derived lung adenocarcinoma cell line growth inhibition
- experimentalConditions: second compound 10 µM; first compound 1 µM; stronger effect = lower value

molecule: CC1(C)CCC(CN2CCN(c3ccc(C(=O)NS(=O)(=O)c4ccc(NCC5CCOCC5)c([N+](=O)[O-])c4)c(Oc4cnc5[nH]ccc5c4)c3)CC2)=C(c2ccc(Cl)cc2)C1 + NC1CCC(NC2CC2c2ccccc2)CC1
viability, T/C [%]: 87.3
//
molecule: CC1COCCN1c1cc(-c2ccnn2C)c2ccnc(-c3ccn[nH]3)c2n1 (stereo not drawn) + NC1CC1c1ccc(-c2cccc(O)c2)cc1
viability, T/C [%]: 34.7
//
molecule: COc1ccc([C@@H](O)c2cc(-c3ncnc4cc(N5CCOCC5)ccc34)c(F)cc2Cl)nn1 + NC1CCC(NC2CC2c2ccccc2)CC1
viability, T/C [%]: 57

----------
- Test system: 653999-131-R-J2-PDC complex spheroid viability
- assayProtocol: Anticancer human tumor 653999-131-R-J2-PDC cell line growth inhibition;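 further: spheroids exposed to agents for seven days before readout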
- experimentalConditions: curve of first compound; second compound 1 µM

compound: CC(C)CC(NC(=O)CNC(=O)c1cc(Cl)ccc1Cl)B1OC(=O)CC(CC(=O)O)(C(=O)O)O1 (stereo not drawn) + NC1CC1c1ccc(-c2cccc(O)c2)cc1
targetOrTestSystem: 653999-131-R-J2-PDC complex spheroid viability
readingUnit: nM
qual: =
IC50: 16.5

compound: CCc1c2c(nc3ccc(O)cc13)-c1cc3c(c(=O)n1C2)COC(=O)[C@]3(O)CC + NC1CC1c1ccc(-c2cccc(O)c2)cc1
targetOrTestSystem: 653999-131-R-J2-PDC complex spheroid viability
readingUnit: nM
qual: <
IC50: 0.949

compound: CC(C)c1c(-c2ccccc2)nc2c(C#N)c[nH]n2c1=O + NC1CCC(NC2CC2c2ccccc2)CC1
targetOrTestSystem: 653999-131-R-J2-PDC complex spheroid viability
readingUnit: nM
qual: >
IC50: 10000

compound: Cn1ncnc1C1c2n[nH]c(=O)c3cc(F)cc(c23)NC1c1ccc(F)cc1 (stereo not drawn) + NC1CCC(NC2CC2c2ccccc2)CC1
targetOrTestSystem: 653999-131-R-J2-PDC complex spheroid viability
readingUnit: nM
qual: >
IC50: 100

compound: CC(C)c1c(-c2ccccc2)nc2c(C#N)c[nH]n2c1=O + NC1CC1c1ccc(-c2cccc(O)c2)cc1
targetOrTestSystem: 653999-131-R-J2-PDC complex spheroid viability
readingUnit: nM
qual: >
IC50: 10000

compound: Nc1ccccc1NC(=O)c1ccc(CNC(=O)OCc2cccnc2)cc1 + NC1CC1c1ccc(-c2cccc(O)c2)cc1
targetOrTestSystem: 653999-131-R-J2-PDC complex spheroid viability
readingUnit: nM
qual: =
IC50: 293

compound: CCN(c1cc(-c2ccc(CN3CCOCC3)cc2)cc(C(=O)NCc2c(C)cc(C)[nH]c2=O)c1C)C1CCOCC1 + NC1CCC(NC2CC2c2ccccc2)CC1
targetOrTestSystem: 653999-131-R-J2-PDC complex spheroid viability
readingUnit: nM
qual: >
IC50: 3000

compound: Nc1ccn(C2OC(CO)C(O)C2(F)F)c(=O)n1 (stereo not drawn) + NC1CCC(NC2CC2c2ccccc2)CC1
targetOrTestSystem: 653999-131-R-J2-PDC complex spheroid viability
readingUnit: nM
qual: =
IC50: 7.34

compound: CC[C@@]1(O)C(=O)OCc2c1cc1n(c2=O)Cc2cc3c(CN(C)C)c(O)ccc3nc2-1 + NC1CC1c1ccc(-c2cccc(O)c2)cc1
targetOrTestSystem: 653999-131-R-J2-PDC complex spheroid viability
readingUnit: nM
qual: =
IC50: 9.32

compound: CCN(c1cc(-c2ccc(CN3CCOCC3)cc2)cc(C(=O)NCc2c(C)cc(C)[nH]c2=O)c1C)C1CCOCC1 + NC1CC1c1ccc(-c2cccc(O)c2)cc1
targetOrTestSystem: 653999-131-R-J2-PDC complex spheroid viability
readingUnit: nM
qual: >
IC50: 3000

compound: Nc1ncn(C2CC(O)C(CO)S2)c(=O)n1 (stereo not drawn) + NC1CCC(NC2CC2c2ccccc2)CC1
targetOrTestSystem: 653999-131-R-J2-PDC complex spheroid viability
readingUnit: nM
qual: >
IC50: 300

compound: O=C(c1cc(Cc2n[nH]c(=O)c3ccccc23)ccc1F)N1CCN(C(=O)C2CC2)CC1 + NC1CC1c1ccc(-c2cccc(O)c2)cc1
targetOrTestSystem: 653999-131-R-J2-PDC complex spheroid viability
readingUnit: nM
qual: >
IC50: 10000

compound: O=C(C=Cc1cccc(S(=O)(=O)Nc2ccccc2)c1)NO + NC1CCC(NC2CC2c2ccccc2)CC1
targetOrTestSystem: 653999-131-R-J2-PDC complex spheroid viability
readingUnit: nM
qual: =
IC50: 513

compound: CC1COCCN1c1cc(C2(S(C)(=N)=O)CC2)nc(-c2ccnc3[nH]ccc23)n1 (stereo not drawn) + NC1CC1c1ccc(-c2cccc(O)c2)cc1
targetOrTestSystem: 653999-131-R-J2-PDC complex spheroid viability
readingUnit: nM
qual: =
IC50: 1580

compound: COc1cc(Nc2ncc3c(n2)-c2ccc(Cl)cc2C(c2c(F)cccc2OC)=NC3)ccc1C(=O)O + NC1CC1c1ccc(-c2cccc(O)c2)cc1
targetOrTestSystem: 653999-131-R-J2-PDC complex spheroid viability
readingUnit: nM
qual: >
IC50: 1000

compound: Nc1ncn(C2CC(O)C(CO)S2)c(=O)n1 (stereo not drawn) + NC1CC1c1ccc(-c2cccc(O)c2)cc1
targetOrTestSystem: 653999-131-R-J2-PDC complex spheroid viability
readingUnit: nM
qual: >
IC50: 300

compound: CC1COCCN1c1cc(-c2ccnn2C)c2ccnc(-c3ccn[nH]3)c2n1 (stereo not drawn) + NC1CC1c1ccc(-c2cccc(O)c2)cc1
targetOrTestSystem: 653999-131-R-J2-PDC complex spheroid viability
readingUnit: nM
qual: <
IC50: 3.16

compound: Nc1ccn(C2OC(CO)C(O)C2(F)F)c(=O)n1 (stereo not drawn) + NC1CC1c1ccc(-c2cccc(O)c2)cc1
targetOrTestSystem: 653999-131-R-J2-PDC complex spheroid viability
readingUnit: nM
qual: =
IC50: 24.9

compound: CC(C)CC(NC(=O)CNC(=O)c1cc(Cl)ccc1Cl)B1OC(=O)CC(CC(=O)O)(C(=O)O)O1 (stereo not drawn) + NC1CCC(NC2CC2c2ccccc2)CC1
targetOrTestSystem: 653999-131-R-J2-PDC complex spheroid viability
readingUnit: nM
qual: =
IC50: 10.9

compound: CC1(C)CCC(CN2CCN(c3ccc(C(=O)NS(=O)(=O)c4ccc(NCC5CCOCC5)c([N+](=O)[O-])c4)c(Oc4cnc5[nH]ccc5c4)c3)CC2)=C(c2ccc(Cl)cc2)C1 + NC1CCC(NC2CC2c2ccccc2)CC1
targetOrTestSystem: 653999-131-R-J2-PDC complex spheroid viability
readingUnit: nM
qual: =
IC50: 8730

compound: O=C(C=Cc1cccc(S(=O)(=O)Nc2ccccc2)c1)NO + NC1CC1c1ccc(-c2cccc(O)c2)cc1
targetOrTestSystem: 653999-131-R-J2-PDC complex spheroid viability
readingUnit: nM
qual: =
IC50: 293

compound: CC[C@@]1(O)C(=O)OCc2c1cc1n(c2=O)Cc2cc3c(CN(C)C)c(O)ccc3nc2-1 + NC1CCC(NC2CC2c2ccccc2)CC1
targetOrTestSystem: 653999-131-R-J2-PDC complex spheroid viability
readingUnit: nM
qual: =
IC50: 4.8

compound: CCc1c2c(nc3ccc(O)cc13)-c1cc3c(c(=O)n1C2)COC(=O)[C@]3(O)CC + NC1CCC(NC2CC2c2ccccc2)CC1
targetOrTestSystem: 653999-131-R-J2-PDC complex spheroid viability
readingUnit: nM
qual: <
IC50: 0.949

compound: CC1(C)CCC(CN2CCN(c3ccc(C(=O)NS(=O)(=O)c4ccc(NCC5CCOCC5)c([N+](=O)[O-])c4)c(Oc4cnc5[nH]ccc5c4)c3)CC2)=C(c2ccc(Cl)cc2)C1 + NC1CC1c1ccc(-c2cccc(O)c2)cc1
targetOrTestSystem: 653999-131-R-J2-PDC complex spheroid viability
readingUnit: nM
qual: =
IC50: 5190

compound: NS(=O)(=O)OCC1CC(n2ccc3c(NC4CCc5ccccc54)ncnc32)CC1O (stereo not drawn) + NC1CCC(NC2CC2c2ccccc2)CC1
targetOrTestSystem: 653999-131-R-J2-PDC complex spheroid viability
readingUnit: nM
qual: >
IC50: 3000

compound: O=C(C=Cn1cnc(-c2cc(C(F)(F)F)cc(C(F)(F)F)c2)n1)NNc1cnccn1 + NC1CCC(NC2CC2c2ccccc2)CC1
targetOrTestSystem: 653999-131-R-J2-PDC complex spheroid viability
readingUnit: nM
qual: =
IC50: 12.7

compound: Cn1ncnc1C1c2n[nH]c(=O)c3cc(F)cc(c23)NC1c1ccc(F)cc1 (stereo not drawn) + NC1CC1c1ccc(-c2cccc(O)c2)cc1
targetOrTestSystem: 653999-131-R-J2-PDC complex spheroid viability
readingUnit: nM
qual: >
IC50: 100

compound: CC(C)CC(NC(=O)C(Cc1ccccc1)NC(=O)c1cnccn1)B(O)O (stereo not drawn) + NC1CCC(NC2CC2c2ccccc2)CC1
targetOrTestSystem: 653999-131-R-J2-PDC complex spheroid viability
readingUnit: nM
qual: =
IC50: 2.96
